Study system: Lethal(3)malignant brain tumor-like protein 1 (Homo sapiens)
Assay procedure: qHTS Assay for the Inhibitors of L3MBTL1; further: nearly all actives have a fitted effect of over 60% in size
Study conditions: AlphaScreen L3MBTL1–H3K9me1 peptide binding; series mostly up to 57.1 µM
Screen size: about 230,000 compounds; about 1,500 (0.65%) were called active. Another 3% or so got no clear call; they are omitted. The call rests on the fitted dose curve; in most records, active means well fitted inhibition curve with a large enough effect; inconclusive means small, poorly fitted or top-dose-only effect; inactive means no such curve, though single readings can be large or run the other way. What follows is part of a selection rich in actives, with near analogues and random picks from the rest.
Write down the outcome that applies. Available outcomes: TRUE for active, FALSE for inactive

Cc1c(NC(=O)/C=C/C(=O)O)cccc1[N+](=O)[O-]: FALSE

Request: Please let me know the test result on file for O=C(CN1CCN(c2ccccc2O)CC1)NC(=O)NCc1ccccc1 .
Response: FALSE

Request: Please let me know the test result on file for CC(C)Cn1c(SCC(=O)Nc2ccc(Cl)cc2F)nc(O)cc1=O .
Response: FALSE

Request: Please let me know the test result on file for Cc1ccc(/C=C/C(=O)Nc2ccc([N+](=O)[O-])c(NC(=O)/C=C/c3ccc(C)o3)c2)o1 .
Response: TRUE
